The following molecules are shown together with reported T/K (tumor-to-kidney ratio) values.
# Test system: LNCaP xenografts
# run_description: Ex vivo biodistribution and blocking studies in mice bearing LNCaP xenografts
# experimental_context: 1 h blocked (coinjection of DCFPyL 0.5 mg)
# Method: Imaging and biodistribution experiments were performed using NODSCID IL2RγKO male mice. […] For biodistribution and blocking studies, the mice were injected with 1–3 MBq of radiotracer. […] Blood was withdrawn by cardiac puncture, and the organs and tissues of interest were collected, weighed, and counted using an automatic γ-counter (PerkinElmer). Uptake values were expressed as the percentage of the injected dose per gram of tissue (%ID/g). […]

molecule | T/K (tumor-to-kidney ratio)
C[N+](C)(Cc1cn(Cc2ccc(C(=O)NCCCC[C@H](NC(=O)N[C@@H](CCC(=O)O)C(=O)O)C(=O)O)cn2)nn1)C[B-](F)(F)F [^18F-3] | 0.16
C[N+](C)(Cc1ccc(C(=O)NCCCC[C@H](NC(=O)N[C@@H](CCC(=O)O)C(=O)O)C(=O)O)cc1)C[B-](F)(F)F [^18F-1] | 0.10
C[N+](C)(Cc1cn(Cc2ccc(C(=O)NCCCC[C@H](NC(=O)N[C@@H](CCC(=O)O)C(=O)O)C(=O)O)cc2)nn1)C[B-](F)(F)F [^18F-2] | 0.13

###

# Test system: LNCaP xenografts
# run_description: Ex vivo biodistribution and blocking studies in mice bearing LNCaP xenografts
# experimental_context: 1 h blocked (coinjection of DCFPyL 0.5 mg)

compound | fat uptake [%ID/g]
C[N+](C)(Cc1cn(CC(=O)NC[C@H]2CC[C@H](C(=O)N[C@@H](Cc3ccc4ccccc4c3)C(=O)NCCCC[C@H](NC(=O)N[C@@H](CCC(=O)O)C(=O)O)C(=O)O)CC2)nn1)C[B-](F)(F)F [^18F-5] | 0.16

###

The following compounds are shown together with reported intestine uptake values.
# Tested on: LNCaP xenografts
# run_description: Ex vivo biodistribution and blocking studies in mice bearing LNCaP xenografts
# experimental_context: 1 h blocked (coinjection of DCFPyL 0.5 mg)

compound | intestine uptake / %ID/g
C[N+](C)(Cc1cn(CC(=O)NCCOCCOCCC(=O)N[C@@H](Cc2ccc3ccccc3c2)C(=O)NCCCC[C@H](NC(=O)N[C@@H](CCC(=O)O)C(=O)O)C(=O)O)nn1)C[B-](F)(F)F [^18F-7] | 26.68
C[N+](C)(Cc1ccc(C(=O)NCCCC[C@H](NC(=O)N[C@@H](CCC(=O)O)C(=O)O)C(=O)O)cc1)C[B-](F)(F)F [^18F-1] | 0.57
C[N+](C)(Cc1cn(Cc2ccc(C(=O)NCCCC[C@H](NC(=O)N[C@@H](CCC(=O)O)C(=O)O)C(=O)O)cn2)nn1)C[B-](F)(F)F [^18F-3] | 0.23
C[N+](C)(Cc1cn(CC(=O)NC[C@H]2CC[C@H](C(=O)N[C@@H](Cc3ccc4ccccc4c3)C(=O)NCCCC[C@H](NC(=O)N[C@@H](CCC(=O)O)C(=O)O)C(=O)O)CC2)nn1)C[B-](F)(F)F [^18F-5] | 12.36
O=C(O)CC[C@H](NC(=O)N[C@@H](CCCCNC(=O)c1ccc(Cn2cc(C[n+]3ccc([B-](F)(F)F)cc3)nn2)nc1)C(=O)O)C(=O)O [^18F-4] | 0.18
C[N+](C)(Cc1cn(Cc2ccc(C(=O)NCCCC[C@H](NC(=O)N[C@@H](CCC(=O)O)C(=O)O)C(=O)O)cc2)nn1)C[B-](F)(F)F [^18F-2] | 0.31

The reported numbers originate from paper PMC6681697.
